Taken from ChEMBL document CHEMBL3272173.

target-of-assay: Gonadotropin-releasing hormone receptor (Rattus norvegicus)
assay-comment: In vitro antagonist activity at GNRHR in CD rat anterior pituitary gland assessed as inhibition of LH-RH-stimulated LH release at compound to LH-RH molar ratio of 10000 after 4 hrs by radioimmunoassay
experimental-parameters: concentration not given here
Peptide text beside a SMILES is read from it.
Collected inhibition values appear next to each entry.
Report the value in % with no unit label.

Reference set, count: 3
# compound, inhibition (%)
measured = [
    ("CC(C)C[C@H](NC(=O)CNC(=O)[C@H](Cc1ccc(O)cc1)NC(=O)[C@H](CO)NC(=O)[C@H](Cc1c[nH]c2ccccc12)NC(=O)OCc1ccccc1)C(=O)N[C@@H](CCCNC(=N)N)C(=O)N1CCC[C@H]1C(=O)NCC(N)=O.Cl (HELM PEPTIDE1{[O=C(OCc1ccccc1)[*:2]].W.S.Y.G.L.R.P.G.[am]}$$$$V2.0)", 68),
    ("CC(C)C[C@H](NC(=O)CNC(=O)[C@H](Cc1ccc(O)cc1)NC(=O)[C@H](CO)NC(=O)[C@H](Cc1c[nH]c2ccccc12)NC(=O)[C@@H]1CCC(=O)N1)C(=O)N[C@@H](CCCNC(=N)N)C(=O)N1CCC[C@H]1C(=O)NCC(N)=O (HELM PEPTIDE1{[Glp].W.S.Y.G.L.R.P.G.[am]}$$$$V2.0)", 60),
    ("CC(C)C[C@H](NC(=O)CNC(=O)[C@H](Cc1ccc(O)cc1)NC(=O)[C@H](CO)NC(=O)[C@H](Cc1c[nH]c2ccccc12)NC(=O)[C@H](Cc1cnc[nH]1)NC(=O)OCc1ccccc1)C(=O)N[C@@H](CCCNC(=N)N)C(=O)N1CCC[C@H]1C(=O)NCC(N)=O (HELM PEPTIDE1{[O=C(OCc1ccccc1)[*:2]].H.W.S.Y.G.L.R.P.G.[am]}$$$$V2.0)", 58),
]

Kindly state the measured inhibition obtained for CC(C)C[C@H](NC(=O)CNC(=O)[C@H](Cc1ccc(O)cc1)NC(=O)[C@H](CO)NC(=O)[C@H](Cc1c[nH]c2ccccc12)NC(=O)[C@@H]1CCCN1C=O)C(=O)N[C@@H](CCCNC(=N)N)C(=O)N1CCC[C@H]1C(=O)NCC(N)=O (HELM PEPTIDE1{[O=C[*:2]].P.W.S.Y.G.L.R.P.G.[am]}$$$$V2.0) with Gonadotropin-releasing hormone receptor (Rattus norvegicus).
53
